Experiment: Permeability/transport across hiPS-BCEC barrier in microfluidic Quasi Vivo QV600 setup
Conditions: human, not told
Test Readout: Papp at 100 µM (×10⁻⁶ cm/s)
Report only the number, with the unit ×10⁻⁶ cm/s understood.

Fill in the blank: the reported Papp at 100 µM of "Cn1c(=O)c2c(ncn2C)n(C)c1=O" is ____.
30.4
